- Tested on: NCI-H23 lung
- protocolSummary: NCI tumour cell line growth inhibition, 48 h
Give TGI for every item shown.

Find TGI for COC(=O)C1=C(C(=O)OC)C2OC1c1cc3ccccc3cc12 on NCI-H23 lung and write it down. 11.8 µM

Find TGI for Nc1ccccc1N=Nc1c(S(=O)(=O)O)cc2cc(S(=O)(=O)O)cc(O)c2c1O on NCI-H23 lung and write it down. > 100 µM

Find TGI for CCOC(=O)c1c2cccccc2n2c(=O)cc(C)nc12 on NCI-H23 lung and write it down. > 100 µM

Find TGI for CC(Oc1ccccc1Cl)C(=O)NN1C(=O)CSC1c1ccc(Cl)cc1 (configuration not stated) on NCI-H23 lung and write it down. 39.2 µM

Find TGI for COC(=O)c1c(C(=O)OC)c2c3ccccc3n(C)c2c2c1c1ccccc1n2C on NCI-H23 lung and write it down. > 100 µM

Find TGI for O=C1C(=O)N(c2cccc(C(F)(F)F)c2)C(=O)C(=O)C1c1nc2ccccc2s1 on NCI-H23 lung and write it down. > 100 µM

Find TGI for Nc1c(N2CCCCC2)c(=O)nc2[nH]/c(=C\c3ccccc3)c(=O)n12 on NCI-H23 lung and write it down. > 100 µM

Find TGI for O=C(O)c1ccc(Nc2nc3cc(C(F)(F)F)ccc3nc2-c2ccccc2)cc1 on NCI-H23 lung and write it down. > 100 µM

Find TGI for NC(N)=NC(N)=Nc1ccccc1 (tested in a mixture with another compound) on NCI-H23 lung and write it down. > 100 µM

Find TGI for Oc1ccc(-c2cn3cc(C(F)(F)F)ccc3n2)cc1 on NCI-H23 lung and write it down. > 100 µM

Find TGI for O=C(NN1C(=O)CSC12CCCC2)C(O)c1ccccc1 (configuration not stated) on NCI-H23 lung and write it down. > 100 µM

Find TGI for C=C1CC(COc2ccc3c(C)cc(=O)oc3c2)(c2ccccc2)OC1=O (configuration not stated) on NCI-H23 lung and write it down. 5.53 µM

Find TGI for CCCCCCN(C)Cc1ccc(OCCOc2ccc(CN(C)CCCCCC)cc2)cc1 on NCI-H23 lung and write it down. 3.42 µM

Find TGI for COc1ccc2nc3n(c2c1)C(c1c(Cl)cccc1Cl)SC3 (configuration not stated) on NCI-H23 lung and write it down. > 100 µM

Find TGI for CCOC(=O)NC(=S)c1ccc(O)c2ccccc12 on NCI-H23 lung and write it down. > 100 µM

Find TGI for CC(=N)N(C)O on NCI-H23 lung and write it down. > 100 µM

Find TGI for COCCOCCOCCOc1ccc(C(C#N)N(CCc2ccccc2)C(=O)c2cc(C(=O)N(CCc3ccccc3)C(C#N)c3ccc(OCCOCCOCCOC)cc3)cc(C(=O)N(CCc3ccccc3)C(C#N)c3ccc(OCCOCCOCCOC)cc3)c2)cc1 (configuration not stated) on NCI-H23 lung and write it down. > 100 µM

Find TGI for C1CCN2CC3CCCN4CCCC(C2C1)C34 (configuration not stated) on NCI-H23 lung and write it down. > 100 µM

Find TGI for O=[As](O)(O)c1ccc2nc3cc([As](=O)(O)O)ccc3nc2c1 on NCI-H23 lung and write it down. > 100 µM

Find TGI for CCC(C)C1NC(=O)CNC(=O)C2Cc3c([nH]c4cc(O)ccc34)S(=O)CC(NC(=O)CNC1=O)C(=O)NC(CC(=O)O)C(=O)N1CC(O)CC1C(=O)NC(C(C)C(O)CO)C(=O)N2 (configuration not stated) on NCI-H23 lung and write it down. 5.81 µM

Find TGI for COC(=O)C(=O)C(C(=O)C=C(C)C)C(=O)C(=O)Nc1nc2ccc([N+](=O)[O-])cc2s1 (configuration not stated) on NCI-H23 lung and write it down. > 100 µM

Find TGI for CC1=NN(C(=O)c2ccc(Cl)cc2)C(=O)/C1=C/c1ccco1 on NCI-H23 lung and write it down. > 100 µM

Find TGI for CC(=O)ON(C(C)=O)C1C(COC(c2ccccc2)(c2ccccc2)c2ccccc2)OC2OC3(CCCC3)OC21 (configuration not stated) on NCI-H23 lung and write it down. > 100 µM

Find TGI for CCCCN=C1OCc2[nH][nH]c(=O)c21 on NCI-H23 lung and write it down. > 100 µM

Find TGI for CN(C)c1ccc(C2ON=C(c3ccccc3)N2C23CC4CC(CC(C4)C2)C3)cc1 (configuration not stated) on NCI-H23 lung and write it down. > 10 µM

Find TGI for CCO[C@@H]1OC(=O)[C@@](C)(C(C)=O)[C@@H]1C on NCI-H23 lung and write it down. 28.7 µM

Find TGI for COc1cc(-c2ccc(NC(=O)NC3CC3)c(OC)c2)ccc1NC(=O)NC1CC1 on NCI-H23 lung and write it down. > 100 µM

Find TGI for CC(C)(C)NC(=O)C12C3C4C1C1C2C3C41C(=O)NC(C)(C)C (configuration not stated) on NCI-H23 lung and write it down. > 100 µM

Find TGI for C=C1C(=O)OC2C1C(OC(=O)/C(C)=C\C)CC1(CO1)C1C(O)C=C(C)C21O (configuration not stated) on NCI-H23 lung and write it down. 27.2 µM

Find TGI for COc1cc2c(cc1OC)c1c(OC)c(OC)cc3c1c1c2sc(=S)n1CC3 on NCI-H23 lung and write it down. > 100 µM

Find TGI for CCN(CC)CCNc1ccc2nnn3c4ccccc4c(=O)c1c23 on NCI-H23 lung and write it down. 19.7 µM

Find TGI for COc1ccc(Nc2nc3ccccc3nc2C(=O)O)cc1OC on NCI-H23 lung and write it down. > 100 µM

Find TGI for CCN(CC)C(=S)SS(=O)(=O)c1ccccc1[N+](=O)[O-] on NCI-H23 lung and write it down. 99 µM

Find TGI for O=C1[C@H](Cl)[C@H]2c3cc4ccccc4nc3Oc3ccccc3N12 on NCI-H23 lung and write it down. > 100 µM

Find TGI for NC(N)=NS(=O)(=O)c1ccc(NC(=O)c2ccc3[nH]c4ccccc4c(=O)c3c2)cc1 on NCI-H23 lung and write it down. > 100 µM

Find TGI for CC[C@@H](/C=C\CCC1(C[C@@H](N)CCC=C(C)C)OCCO1)O[Si](C(C)C)(C(C)C)C(C)C on NCI-H23 lung and write it down. 38.2 µM

Find TGI for c1ccc(C2=Nc3cccc4cccc(c34)N2)cc1 on NCI-H23 lung and write it down. > 100 µM

Find TGI for Cc1c(-c2ccccc2)c(C#N)c2nnn(-c3cccc(Cl)c3)c(=O)n12 on NCI-H23 lung and write it down. > 100 µM

Find TGI for O=C(O)CC1CC=C[C@H]2c3cc4c(cc3C(=O)NC12)OCO4 (some centres not stated) on NCI-H23 lung and write it down. > 75 µM

Find TGI for O=C1/C(=C/c2cccs2)NC(=S)N1CN1CCCC(CO)C1 (configuration not stated) on NCI-H23 lung and write it down. > 100 µM

Find TGI for C[C@@H]1CC[C@@H]2[C@@H](C)C[C@H]3[C@@H]4C(C)(C)OC(=O)[C@]4(C)C(=O)[C@@]23C1=O on NCI-H23 lung and write it down. > 100 µM

Find TGI for Cc1cc(C)n(CN(Cn2nc(C)cc2C)c2ccccc2)n1 on NCI-H23 lung and write it down. 40.8 µM
